Entries and their measured activity score (negative = inhibition) follow.
# Tested System: Glycogen synthase kinase-3 beta (Homo sapiens)
# Procedure Details: blockers of GSK3B enzyme activity – biochemical, cell-free homogeneous, HTS, primary screen (AID 2097);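 further: 0% = median DMSO wells and -100% = median GW8510 positive control wells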
# Condition Set: GST-GSK3beta kinase, ADP-Glo luminescence, 60 min; at 10 µM; active compounds read low
Hit rate of the full screen: of about 300,000 compounds, about 120 (0.04%) were called active. This excerpt belongs to a sample that is enriched for actives.
Metric Name: activity score (negative = inhibition) (%)

INSERT INTO measurements (compound, recorded_result) VALUES
  ('CC(=O)Nc1cccc(C(=O)OCC(=O)c2ccc3c(c2)OCO3)c1', 0.7),
  ('CCCCC(NC(=O)c1cccc(Br)c1)C(=O)O (stereo unspecified)', -0.419),
  ('CC(C)(C)c1ccc(C(=O)NNC(=O)Cc2ccccc2)cc1', -1.05),
  ('COC(=O)c1ccc(CNC(=O)C2CCC(=O)N(Cc3cccc(F)c3)C2)cc1 (stereo unspecified)', -6.3),
  ('COc1ccccc1-n1c(=S)[nH]c2c(sc(=S)n2-c2ccc(C)cc2C)c1=O', -0.962),
  ('COc1ccc(C(=O)NC(C)Cn2nc(C)cc2C)cc1OC1CCN(C(C)=O)CC1 (stereo unspecified)', -1.16),
  ('CC(C)NC(=O)c1ccccc1S(=O)c1ccccc1C#N (stereo unspecified)', -1.11),
  ('CCOc1ccc(NC(=O)c2ccc(NC(=O)CN3C(=O)C(=O)N(CC(C)C)C3=O)cc2)cc1', 0.0927),
  ('CN(CCNC(=O)c1cc2c(-c3ccccc3F)nn(C)c2s1)C1CCCCC1', -2.3),
  ('Cc1cc(C)c(OCCN2CC(C)OC(C)C2)c(Br)c1 (stereo unspecified)', -2.1),
  ('CCNC(=S)N(CCN(CC)CC)Cc1cc2cc3c(cc2[nH]c1=O)OCCO3', 1.49);

###

# Tested System: Glycogen synthase kinase-3 beta (Homo sapiens) (UniProt P49841)
# Sequence (P49841 whole entry, looked up): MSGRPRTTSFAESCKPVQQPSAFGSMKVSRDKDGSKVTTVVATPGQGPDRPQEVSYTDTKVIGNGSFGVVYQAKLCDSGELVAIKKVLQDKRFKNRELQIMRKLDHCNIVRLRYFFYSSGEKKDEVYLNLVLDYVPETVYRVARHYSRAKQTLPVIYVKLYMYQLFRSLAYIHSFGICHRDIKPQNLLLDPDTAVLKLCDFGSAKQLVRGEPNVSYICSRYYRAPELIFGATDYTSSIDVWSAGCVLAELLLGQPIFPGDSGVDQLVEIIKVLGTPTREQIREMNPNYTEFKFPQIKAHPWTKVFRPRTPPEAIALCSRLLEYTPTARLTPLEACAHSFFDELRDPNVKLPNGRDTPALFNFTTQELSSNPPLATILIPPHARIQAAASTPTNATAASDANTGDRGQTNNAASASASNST
# Procedure Details: blockers of GSK3B enzyme activity – biochemical, cell-free homogeneous, HTS, primary screen (AID 2097);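 further: 0% = median DMSO wells and -100% = median GW8510 positive control wells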
# Condition Set: GST-GSK3beta kinase, ADP-Glo luminescence, 60 min; at 10 µM; active compounds read low
About 120 (0.04%) of roughly 300,000 compounds were called active. The sample holds actives, similar compounds and a random draw of the others, so the mix is not that of the screen.
Entries and their measured activity score (negative = inhibition) follow.
Metric Name: activity score (negative = inhibition) (%)

INSERT INTO results (compound, recorded_result) VALUES
  ('OCCCNc1nc(-c2ccccc2)c2cc(Cl)ccc2n1', 0.00658),
  ('CC1(C)Cc2ccccc2/C(=C/C(=O)c2ccccc2)N1', -1.05),
  ('CC(CCc1ccccc1)NCC(O)c1cccc([N+](=O)[O-])c1 (stereo unspecified)', 0.339),
  ('CCc1noc(C)c1C(=O)N1CCCSC1=Nc1ccccc1OC', 3.72),
  ('COc1ccc(N(Cc2ccc(N(C)C)cc2)C(=O)c2ccc(S(C)(=O)=O)cc2)cc1', 1.2),
  ('O=C(O)c1ccc2c(=O)n3c(nc2c1)/C(=C/c1ccc(OC(F)F)cc1OC(F)F)CC3', -1.21),
  ('O=C(O)C1CCCN1C1=NS(=O)(=O)c2ccccc21 (stereo unspecified)', 1.84),
  ('COC(=O)c1cc2n(n1)CCCNC2=O', 2.64),
  ('Cc1cc(C)c(-c2csc(NC(=O)CCCc3nc4ccccc4c(=O)[nH]3)n2)c(C)c1', 2.17),
  ('Cc1nc(SCC(=O)NC2CCCC2)[nH]c(=O)c1C', 1.74),
  ('CC(C)n1cnc2c(Nc3cccc(Cl)c3)nc(N(CCO)CCCO)nc21', -11.5);
